Target: Aurora kinase C (Homo sapiens);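 note: values are the mean inhibition of Aurora-C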
Sequence (whole entry): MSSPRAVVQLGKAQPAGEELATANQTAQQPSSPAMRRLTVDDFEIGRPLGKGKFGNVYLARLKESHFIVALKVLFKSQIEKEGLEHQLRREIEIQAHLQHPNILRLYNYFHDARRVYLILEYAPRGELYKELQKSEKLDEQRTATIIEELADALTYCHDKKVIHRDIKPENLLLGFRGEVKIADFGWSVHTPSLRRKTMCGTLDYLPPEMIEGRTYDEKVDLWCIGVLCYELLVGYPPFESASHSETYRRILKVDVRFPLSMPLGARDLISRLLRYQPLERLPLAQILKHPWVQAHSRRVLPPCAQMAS
Conditions: at 0.1 µM
property_measured: inhibition (%)

>>> reported("CCc1ccc(Oc2nccc(-c3c(-c4ccc(F)cc4)ncn3C3CCNCC3)n2)cc1")
1.29
>>> reported("CS(=O)(=O)CCNCc1cc(-c2cc3c(Nc4ccc(OCc5cccc(F)c5)c(Cl)c4)ncnc3s2)cs1")
3.65
>>> reported("NS(=O)(=O)c1ccc(N/N=C2\\C(=O)Nc3ccc(-c4cnco4)cc32)cc1")
-3.12
>>> reported("C[C@@H](Oc1cc(-n2cnc3ccc(OC4CCN(C)CC4)cc32)sc1C(N)=O)c1ccccc1Cl")
-3.34
>>> reported("C[C@@H](Oc1cc(-n2cnc3ccc(OCC4CCN(C)CC4)cc32)sc1C(N)=O)c1ccccc1Cl")
-0.3
>>> reported("Fc1ccc(-c2ncn(C3CCNCC3)c2-c2ccnc(Oc3ccc4c(c3)OCO4)n2)cc1")
7.07
>>> reported("COc1cc(C)c(N(C)C(=O)CN(C)C)cc1Nc1nc(Nc2cccc(F)c2C(N)=O)c2cc[nH]c2n1")
-3.75
>>> reported("COc1cccc(/C=N/Nc2ncnc3c2cnn3-c2cccc(OC)c2)c1")
0.31
>>> reported("COc1cc2ncn(-c3cc(OCCc4ccccc4)c(C(N)=O)s3)c2cc1OC")
1.23
>>> reported("Fc1ccc(-c2ncn(CCCN3CCOCC3)c2-c2ccncc2)cc1")
-0.04
>>> reported("FC(F)(F)c1cccc(Nc2nccc(-c3cnn4nc(-c5ccccc5)ccc34)n2)c1")
1.82

----------
Here, each record is paired with measured inhibition data.
biological target: Ephrin type-A receptor 2 (Homo sapiens) (UniProt P29317); details: at 1 µM;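 note: value is the mean inhibition of EPHA2, measured in the GSK PKIS screen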
Sequence (P29317 whole entry): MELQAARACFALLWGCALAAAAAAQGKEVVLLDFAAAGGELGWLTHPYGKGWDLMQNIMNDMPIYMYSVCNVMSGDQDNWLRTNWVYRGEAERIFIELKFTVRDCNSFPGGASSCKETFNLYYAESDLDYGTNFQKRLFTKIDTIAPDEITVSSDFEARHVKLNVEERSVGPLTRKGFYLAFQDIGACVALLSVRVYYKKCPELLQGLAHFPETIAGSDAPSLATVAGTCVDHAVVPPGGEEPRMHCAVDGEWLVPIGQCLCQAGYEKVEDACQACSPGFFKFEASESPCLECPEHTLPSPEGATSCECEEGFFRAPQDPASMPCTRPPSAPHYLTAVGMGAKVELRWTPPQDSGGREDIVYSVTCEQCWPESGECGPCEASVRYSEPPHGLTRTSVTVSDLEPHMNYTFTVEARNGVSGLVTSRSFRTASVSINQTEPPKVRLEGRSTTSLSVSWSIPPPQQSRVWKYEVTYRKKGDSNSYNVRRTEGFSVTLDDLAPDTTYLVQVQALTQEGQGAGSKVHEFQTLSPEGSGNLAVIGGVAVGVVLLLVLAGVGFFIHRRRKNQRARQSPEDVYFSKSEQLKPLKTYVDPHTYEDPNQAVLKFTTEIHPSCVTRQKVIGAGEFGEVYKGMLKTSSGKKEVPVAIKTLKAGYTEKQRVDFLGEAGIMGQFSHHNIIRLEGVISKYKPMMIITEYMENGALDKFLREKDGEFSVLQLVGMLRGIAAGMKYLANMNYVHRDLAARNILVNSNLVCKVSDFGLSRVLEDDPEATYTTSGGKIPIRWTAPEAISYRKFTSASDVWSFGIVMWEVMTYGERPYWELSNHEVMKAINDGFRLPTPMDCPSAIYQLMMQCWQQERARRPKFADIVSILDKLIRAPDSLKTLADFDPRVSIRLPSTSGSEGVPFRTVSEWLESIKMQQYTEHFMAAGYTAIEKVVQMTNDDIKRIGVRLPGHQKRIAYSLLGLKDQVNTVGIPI
property_measured: inhibition (%)

>>> reported("NS(=O)(=O)c1ccc(N/N=C2\\C(=O)Nc3ccc(C(=O)NCCCn4ccnc4)cc32)cc1")
2.41
>>> reported("c1ccc(Oc2ccc(Nc3ncc(-c4ccccc4)o3)cc2)cc1")
-2.48
>>> reported("CN1CCN(CCCNc2nc3ccc(Oc4ccc(NC(=O)Nc5cc(C(F)(F)F)ccc5F)cc4)cc3[nH]2)CC1")
2.37
>>> reported("COc1cc(Nc2ncc3c(C)nc(-c4cccc(C(F)(F)F)c4)n3n2)cc(OC)c1OC")
17.5
>>> reported("NS(=O)(=O)c1ccc(Nc2cc(-c3ccc(O)c(F)c3)n[nH]2)cc1")
-1.33
>>> reported("Fc1ccc(-c2ncn(C3CCNCC3)c2-c2ccnc(Oc3ccc(F)c(F)c3)n2)cc1")
-2.72
>>> reported("CS(=O)(=O)CCNCc1cc(-c2cc3c(Nc4ccc(OCc5cccc(F)c5)c(Cl)c4)ncnc3s2)cs1")
-0.67
>>> reported("Nc1nccc(-c2c(-c3ccc(F)cc3)ncn2C2CCC(O)CC2)n1 (centres undefined)")
2.11
>>> reported("COc1cc(C)c(N(C)C(=O)CN(C)C)cc1Nc1nc(Nc2cccc(F)c2C(N)=O)c2cc[nH]c2n1")
-4.61
